Target: Recombinant human TLR7 (Homo sapiens, UniProt Q9NYK1)
Sequence (Q9NYK1 27-1049): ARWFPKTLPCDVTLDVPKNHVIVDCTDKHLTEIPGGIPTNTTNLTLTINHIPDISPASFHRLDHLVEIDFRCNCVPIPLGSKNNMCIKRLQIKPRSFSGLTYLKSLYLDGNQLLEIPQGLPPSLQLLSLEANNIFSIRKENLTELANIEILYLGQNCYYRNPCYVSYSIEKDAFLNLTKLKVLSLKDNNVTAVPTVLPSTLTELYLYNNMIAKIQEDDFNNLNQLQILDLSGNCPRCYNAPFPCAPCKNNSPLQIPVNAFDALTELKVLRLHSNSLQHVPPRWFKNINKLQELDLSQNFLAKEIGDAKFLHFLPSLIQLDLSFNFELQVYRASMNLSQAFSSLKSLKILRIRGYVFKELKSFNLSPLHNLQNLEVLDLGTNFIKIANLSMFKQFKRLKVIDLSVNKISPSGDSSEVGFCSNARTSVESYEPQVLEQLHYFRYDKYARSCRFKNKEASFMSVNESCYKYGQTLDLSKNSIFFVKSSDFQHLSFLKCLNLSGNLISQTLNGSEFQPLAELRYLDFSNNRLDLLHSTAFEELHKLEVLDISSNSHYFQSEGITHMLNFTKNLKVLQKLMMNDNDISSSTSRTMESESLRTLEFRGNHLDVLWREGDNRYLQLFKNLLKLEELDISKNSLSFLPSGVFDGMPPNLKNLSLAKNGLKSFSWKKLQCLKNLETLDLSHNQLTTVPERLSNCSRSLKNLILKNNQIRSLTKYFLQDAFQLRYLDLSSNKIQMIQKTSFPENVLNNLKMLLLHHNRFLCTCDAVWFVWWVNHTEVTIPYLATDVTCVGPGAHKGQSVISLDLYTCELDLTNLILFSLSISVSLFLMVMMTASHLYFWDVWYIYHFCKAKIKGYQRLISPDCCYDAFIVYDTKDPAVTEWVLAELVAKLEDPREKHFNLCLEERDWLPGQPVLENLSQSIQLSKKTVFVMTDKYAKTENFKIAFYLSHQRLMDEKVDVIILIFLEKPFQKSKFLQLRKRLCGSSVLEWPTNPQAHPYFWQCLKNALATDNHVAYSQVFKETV
Assay: Human TLR7 assay (SEAP reporter in HEK293 cells)
Details: TLR7 activation, SEAP induction, overnight incubation at 37° C., 0.1% DMSO
endpoint: EC50
Include the unit right after the number.

Fill in the blank: the reported EC50 of CCCCCNc1nc(N)nc(C)c1Cc1ccc(N2CCN(C)CC2=O)cc1OC [Example 2] is ____.
63.1 nM

Can you look up the measured EC50 of CCC[C@@H](CCO)Nc1nc(N)nc(C)c1Cc1ccc(N2CCNCC2=O)cc1OC [Example 5] for me?
126 nM

Sample CCCCNc1nc(N)nc(C)c1Cc1ccc(N2CCN(C)CC2=O)cc1OC [Example 1] — what was its EC50?
63.1 nM

Query: EC50; subject: CCC[C@@H](CO)Nc1nc(N)nc(C)c1Cc1ccc(N2CCN(C)CC2=O)cc1OC [Example 4]
200 nM

Give the measured EC50 of CCC[C@@H](CCO)Nc1nc(N)nc(C)c1Cc1ccc(N2CCN(C)CC2=O)cc1OC [Example 3] .
25.1 nM
